Reference source for all entries: patent US20240166622A1

human DHODH (Homo sapiens (Human), UniProt Q02127): recorded pIC50 for assorted molecules
Sequence (Q02127 whole entry): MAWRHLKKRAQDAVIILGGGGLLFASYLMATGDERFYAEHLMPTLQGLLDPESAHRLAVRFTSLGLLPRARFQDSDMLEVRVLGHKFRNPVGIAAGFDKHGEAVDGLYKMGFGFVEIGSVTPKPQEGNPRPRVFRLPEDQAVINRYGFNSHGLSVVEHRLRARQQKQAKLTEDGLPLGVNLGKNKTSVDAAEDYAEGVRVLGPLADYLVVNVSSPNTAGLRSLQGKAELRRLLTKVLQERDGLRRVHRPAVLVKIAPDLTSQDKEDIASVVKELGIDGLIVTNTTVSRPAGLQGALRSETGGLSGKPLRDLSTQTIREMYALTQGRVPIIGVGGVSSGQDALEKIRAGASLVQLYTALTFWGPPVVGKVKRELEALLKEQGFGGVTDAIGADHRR
By convention, pIC50 is the negative base-10 log of a molar concentration.

Incoming: Please look up its pIC50: CCn1c(CO)nn(-c2cc3c(cc2F)N(C(C)=O)C(c2ccccc2C)CC3C(C)C)c1=O (centres unmarked) [Example 24]
Outgoing: 5.26

---

# system under test: human DHODH (Homo sapiens (Human))
Measured pIC50 by item
Schema: pIC50 number; meaning minus log10 of the concentration expressed in molar units.

Solved entries (count: 5):
CCn1c(CO)nn(-c2cc3c(cc2F)C(C)(O)C(c2ccccc2C)CN3C(C)C)c1=O (racemic) : 9.22
CCn1c(CO)nn(-c2cc3c(cc2F)C(C)=C(c2ccccc2C)CN3C(C)C)c1=O : 8.43
CCn1c(CO)nn(-c2cc3c(cc2F)O[C@H](c2c(F)cccc2Cl)CN3C(C)C)c1=O (single isomer, unassigned) : 8.26
CCn1c(CO)nn(-c2cc3c(cc2F)OC(c2c(F)cccc2Cl)CN3C(C)C)c1=O (stereo not shown) : 9.30
CCn1c(CO)nn(-c2cc3c(cc2F)[C@H](O)[C@H](c2ccccc2C)CN3C(C)C)c1=O (stereo in doubt) : 8.65

Incoming: Query the reported pIC50 for human DHODH (Homo sapiens (Human)); item: CCn1c(CO)nn(-c2cc3c(cc2F)c(=O)c(-c2cc(C)ccc2F)cn3C(C)C)c1=O
Outgoing: 7.24

Incoming: # get_value(readout= pIC50, system= human DHODH (Homo sapiens (Human))) for CCn1c(CO)nn(-c2cc3c(cc2F)OC(c2c(F)cccc2Cl)C(=O)N3C(C)C)c1=O (stereo not shown)
Outgoing: 7.37
